- System: MDA-MB-231
- assay-details: Cytotoxicity against human MDA-MB-231 cells after 5 days by SRB assay
- run-conditions: MDA-MB-231, 5 days
readout: pEC50
Answers are plain numbers, as −log10 of the molar value.

> print(dat)
                           molecular.string      system  numeric.result
1  CN1C/C(=C\c2ccncc2)C(=O)/C(=C/c2ccncc2)C1  MDA-MB-231            6.10
2  CN1C/C(=C\c2cccnc2)C(=O)/C(=C/c2cccnc2)C1  MDA-MB-231            5.68
3  COc1cc(/C=C2\CCC/C(=C\c3ccc(O)c(OC)c3)C2=O)ccc1O  MDA-MB-231            5.59
4  COc1ccc(OC)c(/C=C2\CN(C)C/C(=C\c3cc(OC)ccc3OC)C2=O)c1  MDA-MB-231            5.96
5  COc1cc(/C=C2\CN(C)C/C(=C\c3cc(OC)c(OC)c(OC)c3)C2=O)cc(OC)c1OC  MDA-MB-231            6.52
6  COc1cc(F)c(/C=C2\CN(C)C/C(=C\c3cc(OC)c(OC)cc3F)C2=O)cc1OC  MDA-MB-231            5.42
7      O=C1/C(=C/c2cccnc2)CCC/C1=C\c1cccnc1  MDA-MB-231            5.82
8  O=C1/C(=C/c2ccnc(F)c2)CCC/C1=C\c1ccnc(F)c1  MDA-MB-231            5.48

State the recorded pEC50 for every item in the following list.
1. O=C1/C(=C/c2cccnc2F)CCC/C1=C\c1cccnc1F
2. O=C1/C(=C/c2cccnc2)CC/C1=C\c1cccnc1
3. COc1cc(/C=C/C(=O)CC(=O)/C=C/c2ccc(O)c(OC)c2)ccc1O

1. 5.49
2. 5.07
3. 5.12

Consider the following items and state reported pEC50 for each.
1. O=C1/C(=C/c2ccncc2)CCC/C1=C\c1ccncc1
2. Cn1ccnc1/C=C1\CCC/C(=C\c2nccn2C)C1=O
3. CN1C2CCC1/C(=C\c1cccnc1)C(=O)/C2=C/c1cccnc1
4. CN1C2CCC1/C(=C\c1ccncc1)C(=O)/C2=C/c1ccncc1

5.96
5.72
4.89
5.96
